Give inhibition for every item shown.
# target.desc: Tyrosine-protein kinase receptor UFO (Homo sapiens) (UniProt P30530)
# Sequence (P30530 whole entry): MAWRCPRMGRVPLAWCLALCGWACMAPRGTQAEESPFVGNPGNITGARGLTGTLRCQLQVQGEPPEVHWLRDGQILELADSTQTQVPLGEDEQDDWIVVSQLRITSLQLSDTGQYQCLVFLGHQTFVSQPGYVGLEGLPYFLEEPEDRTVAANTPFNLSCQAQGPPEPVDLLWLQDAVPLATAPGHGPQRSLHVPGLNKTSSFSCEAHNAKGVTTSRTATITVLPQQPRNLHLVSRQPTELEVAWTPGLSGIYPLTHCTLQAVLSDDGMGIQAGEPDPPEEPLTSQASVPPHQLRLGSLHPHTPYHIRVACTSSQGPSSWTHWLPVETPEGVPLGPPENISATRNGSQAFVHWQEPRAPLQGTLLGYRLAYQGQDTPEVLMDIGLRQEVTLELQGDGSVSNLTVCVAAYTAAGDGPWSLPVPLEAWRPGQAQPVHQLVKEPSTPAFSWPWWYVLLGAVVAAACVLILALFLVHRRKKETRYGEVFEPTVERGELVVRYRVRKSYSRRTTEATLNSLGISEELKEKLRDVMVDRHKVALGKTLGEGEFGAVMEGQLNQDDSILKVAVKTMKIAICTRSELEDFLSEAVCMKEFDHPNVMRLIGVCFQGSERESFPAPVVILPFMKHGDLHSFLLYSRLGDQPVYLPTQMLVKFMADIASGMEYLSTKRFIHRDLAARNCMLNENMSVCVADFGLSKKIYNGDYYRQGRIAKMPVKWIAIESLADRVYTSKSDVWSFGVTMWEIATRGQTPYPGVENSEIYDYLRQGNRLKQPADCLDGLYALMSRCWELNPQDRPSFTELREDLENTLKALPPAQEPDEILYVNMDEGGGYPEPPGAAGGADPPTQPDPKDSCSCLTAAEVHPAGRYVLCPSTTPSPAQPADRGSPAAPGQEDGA
# experimental.conditions: at 1 µM
# Description: GSK_PKIS: AXL mean inhibition at 1 uM [Nanosyn]
Report the value in % with no unit label.

INPUT: Checklist item: inhibition tested on Tyrosine-protein kinase receptor UFO (Homo sapiens) (UniProt P30530), entry Cc1cc(O)cc(C)c1/C=C/c1cncc(C(N)=O)c1 , value?
OUTPUT: -0.54

INPUT: Checklist item: inhibition tested on Tyrosine-protein kinase receptor UFO (Homo sapiens) (UniProt P30530), entry COc1ccc(-c2nn3ncccc3c2-c2ccnc(Nc3ccc(F)c(F)c3)n2)cc1 , value?
OUTPUT: -3.4

INPUT: Checklist item: inhibition tested on Tyrosine-protein kinase receptor UFO (Homo sapiens) (UniProt P30530), entry N#Cc1ccc2c(-c3ccnc(NC4CC4)n3)c(-c3ccc(F)cc3)nn2c1 , value?
OUTPUT: -4.53

INPUT: Checklist item: inhibition tested on Tyrosine-protein kinase receptor UFO (Homo sapiens) (UniProt P30530), entry Fc1cccc(COc2ccc(Nc3ncncc3C#Cc3ccccc3)cc2Cl)c1 , value?
OUTPUT: -6.13

---

# target.desc: MAP kinase-interacting serine/threonine-protein kinase 2 (Homo sapiens)
# experimental.conditions: at 0.1 µM
# Description: GSK_PKIS: MNK2 mean inhibition at 0.1 uM [Nanosyn]
Give inhibition for every item shown.
Report the value in % with no unit label.

INPUT: Entry under review: N#Cc1cccc(Nc2ncc(-c3ccccc3)o2)c1 . Reported inhibition?
OUTPUT: 2.19

INPUT: Entry under review: CCN1CCC(C(=O)Nc2n[nH]c3nnc(-c4cccc(F)c4F)cc23)CC1 . Reported inhibition?
OUTPUT: 0.51

INPUT: Entry under review: Cc1nnc(-c2cccc(-c3ccc(C(=O)NCC4CC4)cc3)c2)o1 . Reported inhibition?
OUTPUT: 2.35

INPUT: Entry under review: CCCNc1cccc(-n2ncc3c(N/N=C/c4ccncc4)ncnc32)c1 . Reported inhibition?
OUTPUT: 37.6

INPUT: Entry under review: COC(=O)Nc1nc2ccc(Oc3ccc(NC(=O)Nc4cc(C(F)(F)F)ccc4F)cc3)cc2s1 . Reported inhibition?
OUTPUT: 2.41

---

# target.desc: Serine/threonine-protein kinase MRCK beta (Homo sapiens) (UniProt Q9Y5S2);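 also: values are mean percent inhibition of MRCKB, screened as part of the GSK PKIS kinase inhibitor set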
# Sequence (Q9Y5S2 whole entry): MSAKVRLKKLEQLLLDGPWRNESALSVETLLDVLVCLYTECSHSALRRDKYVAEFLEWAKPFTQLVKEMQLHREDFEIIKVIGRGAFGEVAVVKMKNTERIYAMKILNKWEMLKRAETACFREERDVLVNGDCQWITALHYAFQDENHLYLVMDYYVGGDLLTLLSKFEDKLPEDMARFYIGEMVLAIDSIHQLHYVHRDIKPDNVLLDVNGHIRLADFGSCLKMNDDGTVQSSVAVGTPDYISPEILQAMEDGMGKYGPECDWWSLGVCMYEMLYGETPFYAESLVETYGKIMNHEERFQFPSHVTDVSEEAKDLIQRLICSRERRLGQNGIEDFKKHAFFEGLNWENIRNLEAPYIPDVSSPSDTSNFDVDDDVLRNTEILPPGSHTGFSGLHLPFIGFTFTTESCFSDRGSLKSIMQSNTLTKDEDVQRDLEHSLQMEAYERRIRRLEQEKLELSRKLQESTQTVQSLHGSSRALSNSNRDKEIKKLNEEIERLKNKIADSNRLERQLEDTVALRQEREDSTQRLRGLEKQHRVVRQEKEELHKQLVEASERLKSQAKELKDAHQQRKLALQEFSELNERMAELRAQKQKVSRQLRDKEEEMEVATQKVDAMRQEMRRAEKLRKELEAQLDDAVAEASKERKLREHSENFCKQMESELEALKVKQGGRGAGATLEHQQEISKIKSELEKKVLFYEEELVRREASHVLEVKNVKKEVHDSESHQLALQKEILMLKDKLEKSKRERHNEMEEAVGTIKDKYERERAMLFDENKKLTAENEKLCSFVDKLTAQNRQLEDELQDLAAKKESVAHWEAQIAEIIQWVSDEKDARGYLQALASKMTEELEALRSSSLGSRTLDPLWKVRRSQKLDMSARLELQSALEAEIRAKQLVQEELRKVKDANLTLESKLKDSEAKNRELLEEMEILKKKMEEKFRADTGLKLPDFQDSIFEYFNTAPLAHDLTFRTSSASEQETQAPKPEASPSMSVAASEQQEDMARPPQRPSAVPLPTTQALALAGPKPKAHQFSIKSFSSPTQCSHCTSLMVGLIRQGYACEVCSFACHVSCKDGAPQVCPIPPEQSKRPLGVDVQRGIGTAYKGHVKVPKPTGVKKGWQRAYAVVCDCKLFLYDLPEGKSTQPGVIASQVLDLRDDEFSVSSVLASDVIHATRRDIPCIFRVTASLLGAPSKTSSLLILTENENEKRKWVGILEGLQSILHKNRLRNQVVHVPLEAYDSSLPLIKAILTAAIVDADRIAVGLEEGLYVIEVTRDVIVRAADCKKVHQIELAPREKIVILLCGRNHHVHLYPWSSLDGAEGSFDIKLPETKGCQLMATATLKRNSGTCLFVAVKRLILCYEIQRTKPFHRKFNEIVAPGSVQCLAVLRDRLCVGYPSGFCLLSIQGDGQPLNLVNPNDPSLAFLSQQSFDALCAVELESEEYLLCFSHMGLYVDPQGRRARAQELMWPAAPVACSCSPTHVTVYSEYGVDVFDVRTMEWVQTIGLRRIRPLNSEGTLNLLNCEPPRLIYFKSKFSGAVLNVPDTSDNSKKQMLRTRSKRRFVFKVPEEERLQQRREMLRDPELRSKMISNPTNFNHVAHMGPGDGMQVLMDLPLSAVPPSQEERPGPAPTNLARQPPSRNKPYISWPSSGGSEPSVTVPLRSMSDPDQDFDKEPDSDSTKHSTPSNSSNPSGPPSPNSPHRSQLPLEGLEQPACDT
# experimental.conditions: at 0.1 µM
experimental.endpoint: inhibition (%)
Report the value in % with no unit label.

INPUT: Entry under review: NC(=O)c1ccc2c(-c3ccnc(NCCCO)n3)c(-c3ccc(F)cc3)nn2c1 . Reported inhibition?
OUTPUT: 0.29

INPUT: Entry under review: COc1ccc(Nc2ncc(-c3ccccc3)o2)cc1OC . Reported inhibition?
OUTPUT: 0.74

INPUT: Entry under review: COc1ccc(-c2nn3ncccc3c2-c2ccnc(Nc3ccc(F)c(F)c3)n2)cc1 . Reported inhibition?
OUTPUT: -0.01

INPUT: Entry under review: CCS(=O)(=O)c1ccc(OC)c(Nc2ncc(-c3cccc(F)c3)o2)c1 . Reported inhibition?
OUTPUT: 0.15

INPUT: Entry under review: CS(=O)(=O)CCNCc1ccc(-c2ccc3ncnc(Nc4ccc(OCc5ccccc5)cc4)c3c2)o1 . Reported inhibition?
OUTPUT: 0.05

INPUT: Entry under review: O=C1Nc2ccccc2/C1=C1\CCc2cc(O)ccc21 . Reported inhibition?
OUTPUT: 1.68

INPUT: Entry under review: COC(=O)Nc1nc2ccc(Oc3ccc(NC(=O)Nc4cc(C(F)(F)F)ccc4F)cc3)cc2s1 . Reported inhibition?
OUTPUT: 0.73

INPUT: Entry under review: CS(=O)(=O)Nc1ccc(-c2cc(-c3ccccc3)cc(C(N)=O)c2N)cc1 . Reported inhibition?
OUTPUT: 0.74

INPUT: Entry under review: COc1ccc2ncn(-c3cc(O[C@H](C)c4ccccc4C(F)(F)F)c(C(N)=O)s3)c2c1 . Reported inhibition?
OUTPUT: 0.61

INPUT: Entry under review: CS(=O)(=O)CCNCc1ccoc1-c1ccc2ncnc(Nc3ccc(OCc4ccccc4)cc3)c2c1 . Reported inhibition?
OUTPUT: -0.65

INPUT: Entry under review: CN(C)CCNC(=O)Nc1ccc(N(C)c2ccnc(Nc3ccc(CS(C)(=O)=O)cc3)n2)cc1 . Reported inhibition?
OUTPUT: 1.09

INPUT: Entry under review: COc1cc(N2CCN(C(C)C)CC2)ccc1Nc1nc(Nc2cccc(F)c2C(=O)O)c2cc[nH]c2n1 . Reported inhibition?
OUTPUT: -1.28

INPUT: Entry under review: c1cnn2ncc(-c3ccnc(NCCCN4CCOCC4)n3)c2c1 . Reported inhibition?
OUTPUT: 0.55

INPUT: Entry under review: O=C(O[C@H]1CN[C@H](C#Cc2cc3ncnc(Nc4ccc(OCc5cccc(F)c5)c(Cl)c4)c3s2)C1)N1CCOCC1 . Reported inhibition?
OUTPUT: 0.34

INPUT: Entry under review: COc1cc(Nc2ncc(-c3ccccc3)o2)cc(OC)c1 . Reported inhibition?
OUTPUT: -0.81

INPUT: Entry under review: CCn1c(-c2nonc2N)nc2cncc(C(=O)NCCNC)c21 . Reported inhibition?
OUTPUT: 23.3

Just for reference, ChEMBL document CHEMBL1961873 is where these values come from.
